The reported numbers originate from paper PMC11514473.

Target: T1, 285bZIP E295G (human, UniProt P16220-1 285-339, C300S;C310S;C337S;E295G)
T1 sequence: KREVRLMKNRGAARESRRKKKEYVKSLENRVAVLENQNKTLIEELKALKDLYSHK
Experiment: stopped-flow fluorescence (koff/kon); 10 mM Mg2+; 10 mM MES pH 6.5, 150 mM NaCl, 10 mM MgCl2, 0.05% Tween-20, 25 C; NMR: 10 mM Tris-d11, 150 mM NaCl, 10 mM MgCl2, 1 mM NaN3, 5% D2O (NOE at 25 C)
Settings: protein: recombinant; tags: extra N-terminal Gly; chain copies: 2; label: 5' Alexa Fluor 488; hairpin (self-annealing, 11 bp stem, CCCC loop)
metric_name: Kd

{"binder": "CCTGACGTCAGCCCCCTGACGTCAGG (structured_DNA) [AlexaFluor488-CREh]", "result": "6 nM"}
